Experiment: Cellular Toxicity (caspase-3) N2a (AID 665);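 further: compound exposure lasted 16 h at 37 °C before readout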
Conditions: N2a cells, luminescence, normalized: DMSO 0%, 10 µM staurosporine 100%; series mostly up to 92.2 µM
Calls of active or inactive are those of the source. The call rests on the fitted dose curve; in most records, active means well fitted activation curve with a large enough effect; inconclusive means small, poorly fitted or top-dose-only effect; inactive means flat fitted curve, though single readings scatter.
ENDPOINT: outcome

- COMPOUND: "CC(=O)Nc1ccccc1"
  outcome: "inactive"
- COMPOUND: "Nc1ccc(S(=O)(=O)c2ccc(N)cc2)cc1"
  outcome: "inactive"
- COMPOUND: "O=C(O)CCCCC1CCSS1 (stereo unspecified)"
  outcome: "inactive"
- COMPOUND: "FC(F)(F)C(Cl)Br (stereo unspecified)"
  outcome: "inactive"
- COMPOUND: "CCCC(O)C(CC)CO (stereo unspecified)"
  outcome: "inactive"

INPUT: I would be grateful if you could share the reported outcome for CC(=O)Nc1ccc(C(=O)O)cc1 .
OUTPUT: inactive
